assay: Measurement of logP values by HPLC on reversed phase columns (EEC directive 79/831 Annex V.A8); type: physicochemical; settings: reversed phase HPLC column; method [a]: pH 2.3 with 0.1% phosphoric acid and acetonitrile as eluent; read-out: log p
ASSAY_READOUT: chromatographic logP

molecule="CC(ON=C(c1ccccc1)c1nnnn1C)c1csc(C#CC2CC2)n1 (centres unmarked)" assay_readout="chromatographic logP" assay_result=3.89
molecule="CC(ON=C(c1ccccc1)c1nnnn1C)c1csc(Br)n1 (centres unmarked)" assay_readout="chromatographic logP" assay_result=3.44

###

test: Measurement of logP values by HPLC on reversed phase columns (EEC directive 79/831 Annex V.A8); type: physicochemical; details: method [a]: pH 2.3 with 0.1% phosphoric acid and acetonitrile as eluent
// reported log p for each item listed
ASSAY_READOUT: log p

compound="CC(ON=C(c1ccccc1)c1nnnn1C)c1csc(C#CCCCc2ccccc2)n1 (stereo not shown) [Example 3]" assay_readout="log p" assay_result=5.08^[a]
compound="CC(ON=C(c1ccccc1)c1nnnn1C)c1csc(C#CCC2CCCC2)n1 (stereo not shown) [Example 4]" assay_readout="log p" assay_result=5.23^[a]
compound="Cn1nnnc1C(=NOCCc1csc(C#CC2CC2)n1)c1ccccc1 [Example 8]" assay_readout="log p" assay_result=3.69^[a]
compound="CC(ON=C(c1ccccc1)c1nnnn1C)c1csc(C#CCC2CCCCC2)n1 (stereo not shown) [Example 5]" assay_readout="log p" assay_result=5.65^[a]
compound="CCCCC#Cc1nc(CCON=C(c2ccccc2)c2nnnn2C)cs1 [Example 9]" assay_readout="log p" assay_result=4.46^[a]
compound="Cn1nnnc1C(=NOCCc1csc(Br)n1)c1ccccc1 [Example 7]" assay_readout="log p" assay_result=3.25^[a]
compound="CCCCC#Cc1nc(C(C)ON=C(c2ccccc2)c2nnnn2C)cs1 (stereo not shown) [Example 6]" assay_readout="log p" assay_result=4.73^[a]

###

# key: entry, value: chromatographic logP
test: Measurement of logP values by HPLC on reversed phase columns (EEC directive 79/831 Annex V.A8); format: physicochemical; details: reversed phase HPLC column, pH 2.7; HCOOH; given in preparation examples; read-out: logP(HCOOH)
ASSAY_READOUT: chromatographic logP

compound="CC(Br)c1csc(Br)n1 (centres unmarked)" assay_result=2.61
compound="CC(O)c1csc(Br)n1 (centres unmarked)" assay_result=1.1
compound="CC(ON=C(c1ccccc1)c1nnnn1C)c1cccc(NC(=O)C(C)(C)C)n1 (centres unmarked)" assay_result=3.64
compound="CC(Br)c1cccc(NC(=O)C(C)(C)C)n1 (centres unmarked)" assay_result=3.05
compound="CC(ON=C(c1ccccc1)c1nnnn1C)c1csc(C#CC2CC2)n1 (centres unmarked)" assay_result=3.89
compound="CC(ON=C(c1ccccc1)c1nnnn1C)c1cccc(N)n1 (centres unmarked)" assay_result=1.21
compound="CC(O)c1cccc(NC(=O)C(C)(C)C)n1 (centres unmarked)" assay_result=1.08
compound="CC(O)c1csc(N)n1 (centres unmarked)" assay_result=-0.16
compound="CC(ON=C(c1ccccc1)c1nnnn1C)c1csc(Br)n1 (centres unmarked)" assay_result=3.44
compound="CC(ON=C(c1ccccc1)c1nnnn1C)c1cccc(NC(=O)OC(C)(C)C)n1 (centres unmarked)" assay_result=4.09
compound=CC(C)(C)C(=O)Nc1cccc(Br)n1 assay_result=2.84

###

Overview of reported log p across a group of compounds:
experiment: Measurement of logP values by HPLC on reversed phase columns (EEC directive 79/831 Annex V.A8); assay type: physicochemical; conditions: method [b]: LC-MS at pH 2.7 with 0.1% formic acid in water and acetonitrile, linear gradient 10% to 95% acetonitrile
ASSAY_READOUT: log p

compound="CCCCCOC(=O)Nc1cccc(C(C)O/N=C(\\c2ccccc2)c2nnnn2C)n1 (centres unmarked)" assay_result=4.41^[b]
compound="CC(ON=C(c1ccccc1)c1nnnn1C)c1cccc(N)n1 (centres unmarked)" assay_result=1.34^[b]
compound="CC(C)CC(=O)Nc1cccc(C(C)O/N=C(/c2ccccc2)c2nnnn2C)n1 (centres unmarked)" assay_result=3.53^[b]
compound="CCCCCC(=O)Nc1cccc(C(C)O/N=C(\\c2ccccc2)c2nnnn2C)n1 (centres unmarked)" assay_result=3.83^[b]
compound="CCCCCOC(=O)Nc1cccc(C(C)O/N=C(/c2ccccc2)c2nnnn2C)n1 (centres unmarked)" assay_result=4.54^[b]
compound=Cn1nnnc1C(=NOC(=O)c1ccccn1)c1ccccc1 assay_result=2.13^[b]
compound="CC(ON=C(c1ccccc1)c1nnnn1C)c1ccccn1 (centres unmarked)" assay_result=2.19^[b]
compound="CCCCCC(=O)Nc1cccc(C(C)O/N=C(/c2ccccc2)c2nnnn2C)n1 (centres unmarked)" assay_result=3.96^[b]
